experiment: NCI Yeast Anticancer Drug Screen. Data for the bub3 strain (AID 167); conditions: S. cerevisiae bub3 mutant strain, at 5.0 µM (retest, dose inferred, filed as 0.5), hits give high values
This is part of a sample that, as a whole, favours compounds with a hit. Of some 79,000 tested, about 15% had one in any assay.
valueKind: growth inhibition (%)
Please reply with the bare figure in % and do not write the unit itself.

{"columns": ["compound", "unitSpec", "recordedValue"],
 "data": [
  ["CCn1c(O)c(C(=O)NC(C)c2ccc([N+](=O)[O-])cc2)c(=O)n(CC)c1=S (stereo not drawn)", "%", 9],
  ["c1ccc(P(CCP(c2ccccc2)c2ccccc2)CCP(c2ccccc2)c2ccccc2)cc1", "%", 96],
  ["CC(C)(C)C(Br)C(=O)NC(N)=O (stereo not drawn)", "%", -3]
]}

IN: Recorded growth inhibition for OC(c1ccc(Cl)cc1)C(Cl)(Cl)Cl (stereo not drawn) , please?
OUT: -8

IN: Endpoint output: growth inhibition of Cc1ccc2c(c1)SP(=S)(c1ccccc1)N2 (stereo not drawn) . Value?
OUT: 0

IN: What does the record list as growth inhibition for CCNC(=O)OCC1C2=C(C(=O)C(C)=C(N)C2=O)N2CC3C(N3C)C12OC (stereo not drawn) ?
OUT: 21

IN: Given O=[N+]([O-])c1ccc(O)c(Cl)c1 , state its recorded growth inhibition.
OUT: -5

###

experiment: NCI Yeast Anticancer Drug Screen. Data for the mlh1 rad18 strain (AID 175); conditions: S. cerevisiae mlh1 rad18 strain growth inhibition; at 5.0 µM (retest, dose inferred, filed as 0.5); hits give high values
The panel holds about 79,000 compounds, 15% with a hit somewhere; the sample as a whole holds those more often.
Response key: 1 means growth inhibition >= 80%; 0 means growth inhibition < 80%.

{"columns": ["molecule", "answerLabel"],
 "data": [
  ["ClCCN(CCCl)c1ccc(CN2CCCN(Cc3ccc(N(CCCl)CCCl)cc3Cl)C2c2ccncc2)c(Cl)c1", 0],
  ["CC[CH2][Sn]([CH2]CC)([CH2]CC)[CH2]CCBr", 1],
  ["C[n+]1[se]nc2cc(C(=O)c3ccccc3)ccc21 (tested in a mixture with another compound)", 1],
  ["CCOP(=O)(OCC)/C(C#N)=C/c1cccc(C)c1", 0],
  ["c1ccc(CCNCc2ccccc2)cc1", 0],
  ["C[C@@H]1CCC2[C@@H](C)[C@H](O[C@H]3O[C@@H]4O[C@@]5(C)CCC6[C@H](C)CCC([C@H]3C)[C@]64OO5)O[C@@H]3O[C@@]4(C)CCC1[C@@]23OO4 (stereo not given in full)", 1],
  ["CCCCCCCCCCCCNCCc1ccccc1", 1],
  ["O=P(CCCCP(=O)(c1ccccc1)c1ccccc1)(c1ccccc1)c1ccccc1.[Cl][Sn]([Cl])([c]1ccccc1)[c]1ccccc1", 1]
]}

IN: For this molecule, is measured growth inhibition 80% or higher? CCOP(=O)(OCC)/C(C#N)=C/c1ccccc1Cl
OUT: 0

IN: Check if growth inhibition >= 80% (inclusive). Item: O=Cc1ccc(C(F)(F)F)cc1.[C-]#[O+].[C-]#[O+].[C-]#[O+].[Cr]
OUT: 0

###

Measured growth inhibition of individual entries
experiment: NCI Yeast Anticancer Drug Screen. Data for the wt1 strain (AID 149);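 also: 0% = growth of vehicle-treated wt1 cultures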; conditions: S. cerevisiae wt1 strain (SPY 50644) growth inhibition; at 11.0 µM; hits give high values
Compounds without any hit were thinned out: in the full panel of roughly 79,000, 15% have a hit.
Field format: number, assumed %, no unit text.

{"columns": ["compound", "unitSpec", "recordedValue"],
 "data": [
  ["c1ccc2cc3n[se]nc3cc2c1", "%", 6],
  ["O=[N+]([O-])c1cc(S(=O)(=O)F)ccc1Cl", "%", 9],
  ["COc1cc2ccccc2c2cc([N+](=O)[O-])oc12", "%", 15],
  ["O=[N+]([O-])c1ccc(-n2nc3ccc4c(no[n+]4[O-])c3[n+]2[O-])c([N+](=O)[O-])c1", "%", -2],
  ["C/C(=N\\N=C(N)N)C(CN1CCOCC1)C(c1ccccc1)c1c(O)c2ccccc2oc1=O (stereo unspecified)", "%", -3]
]}

IN: Entry COC(=O)C1c2cc3c(c(O)c2C(O)CC1(C)O)C(=O)c1c(O)cc2c(c1C3=O)OC1OC2(C)C(O)C(N(C)C)C1O (stereo unspecified) has what growth inhibition?
OUT: 17

IN: Can you look up the measured growth inhibition of CC(C)CC(NC(=O)C(N)C(C)C)C(=O)NC(CCCCN)C(=O)Nc1ccc(N(CCCl)CCCl)cc1 (stereo unspecified) for me?
OUT: -15

IN: For the compound shown here, Cc1c(N)nc([C@H](CC(N)=O)NC[C@H](N)C(N)=O)nc1C(=O)N[C@H](C(=O)N[C@H](C)[C@@H](O)[C@H](C)C(=O)N[C@H](C(=O)NCCc1nc(-c2nc(C(=O)NCCC[S+](C)C)cs2)cs1)[C@@H](C)O)C(OC1OC(CO)C(O)C(O)C1OC1OC(CO)C(O)C(OC(N)=O)C1O)c1cnc[nH]1 (stereo partly specified) , give the reported growth inhibition.
OUT: 11

IN: Consider the compound shown here: O=c1oc2ccccc2c(O)c1C(c1ccc2c(c1)Cc1ccccc1-2)c1c(O)c2ccccc2oc1=O What is its recorded growth inhibition?
OUT: 5

IN: Suppose we examine the compound CCN(CCCl)CCCCNc1c2ccccc2nc2ccc(OC)cc12 ; what growth inhibition value has been reported?
OUT: 32

IN: Suppose we examine the compound CC1CC(Br)C(=O)O1 (stereo unspecified) ; what growth inhibition value has been reported?
OUT: -22

###

Recorded measurements of growth inhibition, one per entry
assay: NCI Yeast Anticancer Drug Screen. Data for the sgs1 mgt1 strain (AID 161);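 also: 0% = growth of cultures given vehicle only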; conditions: S. cerevisiae sgs1 mgt1 strain, at 5.0 µM (retest, dose inferred, filed as 0.5), hits give high values
This is part of a sample that, as a whole, favours compounds with a hit. Of some 79,000 tested, about 15% had one in any assay.
The answer is to be given in %; state only the numeric part.

Sample records with growth inhibition:
{"columns": ["molecule", "unitSpec", "growth inhibition"],
 "data": [
  ["C[C@]12CC[C@H](O)CC1=CC[C@@H]1[C@@H]2CC[C@]2(C)C(=O)CC[C@@H]12", "%", -7],
  ["O=[N+]([O-])[O][Tl]([c]1ccccc1)[c]1ccccc1", "%", -4],
  ["Oc1c(Cl)c(Cl)c(Cl)c(Cl)c1Cl.[Cu+2]", "%", 31],
  ["O=C(COc1ccc(Cl)c(Cl)c1)N(Cc1ccccc1)Cc1ccc[n+](Cc2ccc(Cl)cc2S(=O)(=O)F)c1", "%", 2]
]}

IN: Please give the measured growth inhibition for this molecule: CC(CCS(C)(=O)=O)([N+](=O)[O-])[N+](=O)[O-]
OUT: 28

IN: Need growth inhibition, item CC(=O)[O-].O=C([CH-]C(=O)c1ccccc1)c1ccccc1.O=C([CH-]C(=O)c1ccccc1)c1ccccc1.[Sm+3]
OUT: 50

IN: What value of growth inhibition has been recorded for this entry: [Br][Ni][Br].c1ccc(CN2CCN(Cc3ccccc3)CCN(Cc3ccccc3)CCN(Cc3ccccc3)CC2)cc1
OUT: -2

###

Each entry below carries its reported growth inhibition.
assay: NCI Yeast Anticancer Drug Screen. Data for the mec2-1 strain (AID 157); conditions: S. cerevisiae mec2-1 strain, at 50.0 µM (retest, dose inferred, filed as 5.0), hits give high values
Compounds without any hit were thinned out: in the full panel of roughly 79,000, 15% have a hit.
Please reply with the bare figure in % and do not write the unit itself.

{"columns": ["compound", "valueKind", "recordedValue"],
 "data": [
  ["CC[C@@]1(O)C[C@H](OC2CC(N)C(O)C(C)O2)c2c(O)c3c(c(O)c2[C@H]1C(=O)OC)C(=O)c1cccc(O)c1C3=O (some centres undefined)", "growth inhibition", 99],
  ["N#CC(C#N)=Cc1ccc2c(c1)OC(Cl)O2 (centres undefined)", "growth inhibition", 27],
  ["CN(CCC(N)CC(=O)NC1C=CC(n2ccc(N)nc2=O)OC1C(=O)O)C(=N)N (centres undefined)", "growth inhibition", 98],
  ["CCC[CH2][Sn]1([CH2]CCC)[S]CC[N]1S(=O)(=O)c1ccc(C)cc1", "growth inhibition", 99]
]}

IN: Form field: reported growth inhibition of CCC1(C2=CCCCC2)C(=O)NC(=S)NC1=O
OUT: 76

IN: Entry under review: Oc1cccc[c]1[Hg][Cl] . Reported growth inhibition?
OUT: 100

IN: So what does the record say about growth inhibition for Cc1cccc2cc3ccccc3c[n+]12 ?
OUT: 49

IN: // growth inhibition lookup, key: Cn1cc(/C=C/[N+](=O)[O-])c2ccccc21
OUT: 96

###

assay: NCI Yeast Anticancer Drug Screen. Data for the mec2-1 strain (AID 157); settings: S. cerevisiae mec2-1 strain, at 33.0 µM
The panel holds about 79,000 compounds, 15% with a hit somewhere; the sample as a whole holds those more often. The source made the active and inactive calls. Cut-off read from the data, not from the text of the source: active = growth inhibition above about 70%; inactive = the rest.
One label from this list, please: active, inactive

Use the examples below as a reference point.
{"columns": ["compoundStructure", "answerLabel"],
 "data": [
  ["CCCCCNC(=O)c1c(O)[nH]c(=S)[nH]c1=O", "active"],
  ["Cn1cc(NC(=O)c2cc(NC(=O)CN=C(N)N)cn2C)cc1C(=O)NCCC(=N)N", "active"]
]}

IN: Could you check what this test reported for O=[N+]([O-])c1ccc(N2CCC(CCCC3CCN(c4ccc([N+](=O)[O-])cc4[N+](=O)[O-])CC3)CC2)c([N+](=O)[O-])c1 ?
OUT: inactive
